Target: T1, DR3-8i (human)
T1 construct: also called purified monomeric DR3-8i antigen protein
T1 chain: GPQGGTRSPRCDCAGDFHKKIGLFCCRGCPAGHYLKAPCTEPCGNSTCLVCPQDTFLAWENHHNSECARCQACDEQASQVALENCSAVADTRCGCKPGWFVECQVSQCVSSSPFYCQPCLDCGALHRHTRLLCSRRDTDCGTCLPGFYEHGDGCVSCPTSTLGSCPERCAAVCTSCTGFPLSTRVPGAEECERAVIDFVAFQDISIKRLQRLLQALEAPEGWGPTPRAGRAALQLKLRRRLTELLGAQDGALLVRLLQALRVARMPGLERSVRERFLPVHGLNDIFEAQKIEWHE
Assay: BLI, IgG captured on protein A, DR3-8i in solution; Experiment 1
Quick reference: pKd of the listed items.
pKd here: minus log base 10 of the concentration, concentration in moles per litre.

Example binders with recorded pKd:
# binder, pKd
data = [
    ("VHg2/VLg2 (antibody, human IgG1, V domains shown, human IgG1) VH: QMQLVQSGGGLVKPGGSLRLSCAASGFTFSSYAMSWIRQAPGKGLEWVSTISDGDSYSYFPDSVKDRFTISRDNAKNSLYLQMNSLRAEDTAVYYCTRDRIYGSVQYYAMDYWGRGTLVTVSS VL: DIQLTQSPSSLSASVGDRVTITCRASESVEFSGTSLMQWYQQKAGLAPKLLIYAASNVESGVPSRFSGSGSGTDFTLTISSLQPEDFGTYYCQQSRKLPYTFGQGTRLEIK", 12.00),
    ("VHg6/VLg11 (antibody, human IgG1, V domains shown, human IgG1) VH: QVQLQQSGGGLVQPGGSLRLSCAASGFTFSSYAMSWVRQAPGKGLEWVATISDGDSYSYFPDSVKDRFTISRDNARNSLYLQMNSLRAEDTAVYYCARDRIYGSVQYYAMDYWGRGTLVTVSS VL: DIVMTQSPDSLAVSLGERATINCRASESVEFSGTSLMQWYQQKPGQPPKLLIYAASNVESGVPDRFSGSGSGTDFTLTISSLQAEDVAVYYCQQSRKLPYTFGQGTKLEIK", 9.72),
    ("VHg3/VLg13 (antibody, human IgG1, V domains shown, human IgG1) VH: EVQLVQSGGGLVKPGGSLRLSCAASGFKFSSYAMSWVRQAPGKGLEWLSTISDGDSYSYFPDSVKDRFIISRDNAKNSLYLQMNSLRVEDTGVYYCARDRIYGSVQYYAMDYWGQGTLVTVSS VL: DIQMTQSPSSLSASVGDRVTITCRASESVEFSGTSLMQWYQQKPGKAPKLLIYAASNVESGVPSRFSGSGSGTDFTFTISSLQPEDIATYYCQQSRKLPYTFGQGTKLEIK", 9.33),
    ("VHg2/VLg12 (antibody, human IgG1, V domains shown, human IgG1) VH: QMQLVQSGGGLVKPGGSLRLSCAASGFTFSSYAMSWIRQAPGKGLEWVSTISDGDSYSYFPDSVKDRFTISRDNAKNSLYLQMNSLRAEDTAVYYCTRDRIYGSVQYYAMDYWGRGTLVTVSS VL: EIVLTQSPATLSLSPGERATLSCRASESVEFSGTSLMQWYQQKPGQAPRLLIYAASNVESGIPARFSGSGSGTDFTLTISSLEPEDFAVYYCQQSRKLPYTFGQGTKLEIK", 10.19),
    ("VHg10/VLg6 (antibody, human IgG1, V domains shown, human IgG1) VH: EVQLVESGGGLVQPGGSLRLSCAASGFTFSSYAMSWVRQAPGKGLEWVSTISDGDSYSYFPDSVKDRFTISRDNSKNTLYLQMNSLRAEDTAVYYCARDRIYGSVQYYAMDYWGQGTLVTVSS VL: DVVMTQSPPSLPVTPGEPASISCRASESVEFSGTSLMQWYLQKPGQSPQVLIYAASNVESGVPDRFSGSGSGTDFTLKISRVEAEDVGVYYCQQSRKLPYTFGQGTRLEIK", 9.38),
    ("VHg3/VLg11 (antibody, human IgG1, V domains shown, human IgG1) VH: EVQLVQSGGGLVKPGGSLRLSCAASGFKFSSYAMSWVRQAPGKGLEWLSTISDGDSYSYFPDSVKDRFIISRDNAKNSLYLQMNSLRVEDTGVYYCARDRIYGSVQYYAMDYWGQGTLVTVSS VL: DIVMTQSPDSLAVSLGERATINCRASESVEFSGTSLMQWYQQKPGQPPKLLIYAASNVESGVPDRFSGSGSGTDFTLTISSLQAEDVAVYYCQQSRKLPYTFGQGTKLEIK", 9.44),
    ("VHg1/VLg2 (antibody, human IgG1, V domains shown, human IgG1) VH: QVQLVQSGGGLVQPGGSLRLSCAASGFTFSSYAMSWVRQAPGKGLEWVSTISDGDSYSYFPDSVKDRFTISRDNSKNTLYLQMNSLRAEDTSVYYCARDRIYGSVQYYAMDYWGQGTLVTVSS VL: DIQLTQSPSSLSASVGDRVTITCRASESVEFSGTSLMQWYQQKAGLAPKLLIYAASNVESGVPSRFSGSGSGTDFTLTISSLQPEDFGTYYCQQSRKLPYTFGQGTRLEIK", 9.50),
    ("VHg9/VLg11 (antibody, human IgG1, V domains shown, human IgG1) VH: EVQLVESGGGLVKPGGSLRLSCAASGFTFSSYAMSWVRQAPGKGLEWVSTISDGDSYSYFPDSVKDRFTISRDNAKNSLYLQMNSLRAEDTAVYYCARDRIYGSVQYYAMDYWGQGTLVTVSS VL: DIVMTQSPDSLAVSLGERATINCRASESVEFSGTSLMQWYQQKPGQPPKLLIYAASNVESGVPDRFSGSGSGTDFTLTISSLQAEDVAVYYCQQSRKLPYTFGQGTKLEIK", 9.72),
    ("VHg10/VLg12 (antibody, human IgG1, V domains shown, human IgG1) VH: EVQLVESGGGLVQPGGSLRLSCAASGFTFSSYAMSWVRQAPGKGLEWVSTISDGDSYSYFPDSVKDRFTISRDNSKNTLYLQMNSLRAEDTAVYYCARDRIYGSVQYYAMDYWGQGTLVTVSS VL: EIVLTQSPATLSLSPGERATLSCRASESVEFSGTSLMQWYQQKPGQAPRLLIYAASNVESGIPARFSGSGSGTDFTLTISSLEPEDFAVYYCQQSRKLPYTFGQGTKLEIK", 9.76),
]

Turning now to a further binder:
# input Please look up its pKd: VHg10/VLg11 (antibody, human IgG1, V domains shown, human IgG1) VH: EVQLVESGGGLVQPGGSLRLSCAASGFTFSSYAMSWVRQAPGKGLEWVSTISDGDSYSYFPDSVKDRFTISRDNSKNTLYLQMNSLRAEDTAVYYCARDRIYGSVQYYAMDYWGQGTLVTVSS VL: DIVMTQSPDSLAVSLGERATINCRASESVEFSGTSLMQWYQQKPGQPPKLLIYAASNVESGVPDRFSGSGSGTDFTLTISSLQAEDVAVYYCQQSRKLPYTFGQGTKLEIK
# output 9.78
